Measured values drawn from patent US8557830B2 for this set.

Molecular target: V600E mutant B-raf (Homo sapiens, UniProt P15056, V600E)
Construct: A375 cells, a human melanoma cell line having the V600E mutant B-raf is used in this assay; endogenous in cells; host or cells: A375 human melanoma cells
Sequence (P15056 whole entry V600E): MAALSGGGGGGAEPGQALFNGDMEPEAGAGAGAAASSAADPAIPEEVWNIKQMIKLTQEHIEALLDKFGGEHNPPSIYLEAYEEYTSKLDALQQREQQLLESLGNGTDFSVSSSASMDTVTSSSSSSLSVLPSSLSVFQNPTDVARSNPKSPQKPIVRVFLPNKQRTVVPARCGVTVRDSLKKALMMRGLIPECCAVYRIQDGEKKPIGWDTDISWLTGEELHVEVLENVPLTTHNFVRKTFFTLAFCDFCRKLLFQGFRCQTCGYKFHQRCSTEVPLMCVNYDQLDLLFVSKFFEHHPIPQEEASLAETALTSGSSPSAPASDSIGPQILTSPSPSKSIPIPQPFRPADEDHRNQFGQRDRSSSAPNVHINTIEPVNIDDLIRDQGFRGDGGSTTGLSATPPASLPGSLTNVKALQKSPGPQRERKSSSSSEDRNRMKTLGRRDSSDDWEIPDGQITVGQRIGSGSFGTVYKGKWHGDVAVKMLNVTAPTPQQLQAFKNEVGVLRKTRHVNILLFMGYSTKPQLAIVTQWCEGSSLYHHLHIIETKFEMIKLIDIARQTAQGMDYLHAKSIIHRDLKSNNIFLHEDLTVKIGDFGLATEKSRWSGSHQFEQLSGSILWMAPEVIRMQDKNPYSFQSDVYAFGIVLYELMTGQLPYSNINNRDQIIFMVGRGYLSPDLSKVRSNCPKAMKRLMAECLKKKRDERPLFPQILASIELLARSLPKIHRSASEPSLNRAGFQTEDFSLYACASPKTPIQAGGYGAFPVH
Test: B-raf cell-based assay (ratio of phospho-ERK1/2 to total ERK1/2 in A375 cells)
Conditions: Table II; A375 human melanoma cells, P-ERK/total ERK
pIC50: −log10 of the molar value.
Readout kind: pIC50

Past entries and their recorded results:
{"Compound": "Cc1ccc2c(N[C@H](C)c3ccc(Cl)cc3)nccc2c1Nc1ncccc1-c1ncnc2[nH]cnc12 [Example 78]", "Target of assay": "V600E mutant B-raf (Homo sapiens, UniProt P15056, V600E)", "pIC50": 7.48}
{"Compound": "Cc1ccc2c(Nc3ccc(C#N)cc3)ncnc2c1Nc1ncccc1-c1ncnc2[nH]ncc12 [Example 70]", "Target of assay": "V600E mutant B-raf (Homo sapiens, UniProt P15056, V600E)", "pIC50": 7.07}

(a) Cc1ccc2c(Nc3ccc(Cl)cc3)nccc2c1Nc1ncncc1-c1ncnc2[nH]cnc12 [Example 69]
(b) Cc1ccc2c(Nc3ccc(Cl)cc3)ncnc2c1Nc1ncccc1-c1ncnc2[nH]cnc12 [Example 77]
Smaller pIC50 value? Options are a and b Bench note: the answer is the label of the chosen record.
b
(b: 7.92, a: 8.40)
